Data origin, for the record: the supplement of paper PMC10567573

B1: TRIM43 (parent)
chain: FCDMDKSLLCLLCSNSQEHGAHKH

Variants of: B1
Assay: protein stability index of a GFP-peptide fusion (GPS, HEK-293T) (PSI 1-6); higher = more stable;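 further: lentivirally expressed fusions sorted by FACS into six bins by GFP to DsRed ratio, PSI derived from sequencing read proportions per bin multiplied by bin number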
Conditions: c terminus: a fixed tail appended
Mark yes for reported protein stability index of 2 or greater; mark no for anything smaller.

*Q* Identify whether the reported protein stability index of the following variant is 2 or greater: "H22D"
*A* yes

*Q* Dear colleague, could you confirm whether "F1Q" has protein stability index at or above 2?
*A* yes

*Q* # check: protein stability index of "H24W" is greater than or equal to 2
*A* no

Others:
*Q* Could you tell me if the measured protein stability index of "K6M" reaches 2 or more?
*A* yes

*Q* Decide: protein stability index of "C13V" >= 2?
*A* yes

*Q* Is protein stability index for "S14F" at or above 2?
*A* no

*Q* Record "L11V" ; criterion: protein stability index no lower than 2. Met?
*A* no

*Q* Would you say "C2D" shows protein stability index at minimum 2?
*A* yes

*Q* Please tell me: is the variant "S14Q" at or over 2 in terms of protein stability index?
*A* yes

*Q* Does the reported protein stability index for "A21R" fall at or above the 2 mark?
*A* yes
